Target: T1, serum resistance-associated protein (SRA) from Trypanosoma brucei rhodesiense, recombinant SRA (SEQ ID NO: … (Trypanosoma brucei rhodesiense, UniProt O96637 31-274))
T1 construct: also called SRA protein
T1 sequence: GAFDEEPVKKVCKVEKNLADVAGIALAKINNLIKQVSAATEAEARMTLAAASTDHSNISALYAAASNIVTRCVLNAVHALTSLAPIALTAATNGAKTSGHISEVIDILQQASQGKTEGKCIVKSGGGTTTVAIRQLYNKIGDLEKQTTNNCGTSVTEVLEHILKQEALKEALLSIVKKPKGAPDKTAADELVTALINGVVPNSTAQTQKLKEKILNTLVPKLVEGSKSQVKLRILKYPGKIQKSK
Assay: SPR, mAb captured, 50 nM SRA, pH 4.5, 25C
PROPERTY_MEASURED: 50 nM SRA binding (RU)

H1H10031P (antibody, V domains shown, Fully human antibody with human IgG1 Fc (prefix H1H)) VH: EVQLVESGGNVVRPGGSLRLSCSGSGFAFENYGMSWVRQGPGKGLEWVSNINWNGGSLNYVDSVKGRFTISRDNAKNSLYLQMNSLRAEDTALYYCARVIVYGMDVWGQGTTVTVSS VL: DIQMTQSPSSLSASVGDRVTITCRASQGIRNGLGWFQQKPGKAPKRLIYATSSLQSGVPSRFSGSGSGTEFTLTISSLQPEDFATYYCLQSNSYPWTFGQGTKVEIK : 60 RU
H2aM10204N (antibody, V domains shown, Chimeric antibody, human variable domains and mouse constant domains (mouse Fc, prefix H2aM); also called H2M10204N) VH: QVHLVQSGAEVKKPGSSVKVSCKASGGTFSNYAISWVRQAPGQGLEWMGGIIPFSGSATYAQNFQGRITITTDESTRTAYMELNGLRSEDTAVYYCARWFSGYGGDFDYWGQGTLVTVSS VL: AIQMTQSPSSLSASVGDRVTITCRASQDIKNDLGWYQQKPGKAPKLLIYAASTLQSGVPSRFSGSGSGTHFTLTLSSLQPEDFATYFCLQDYTFPRTFGQGTKVEIK : 140 RU

Consider the record given below.
*Q* Look up 50 nM SRA binding (RU): H1H10058P (antibody, V domains shown, Fully human antibody with human IgG1 Fc (prefix H1H)) VH: EVQLVESGGGLVQPGGSLRLSCAASGFTFNDFFMSWVRQAPGKGLEWVANLNQDGSERHYVDSVKGRFTISRDNAKNSLSLQMNSLRVEDTAVYYCAREGGDSWGQGTLVTVSS VL: DIVMTQSPDSLAVSLGERVTINCKSSQSILYSANNKDYLAWFHQKPGQPPKLLIYWASIRESGVPDRISGSGSGTDFTLTISSLQAEDVAVYYCQQYYLFPPTFGQGTKVEIK
*A* 59 RU
